- experimental_details: xn = mol fraction of the nth substance listed
- conditions: 288.15 K, Wilhelmy plate method, x1 = 0.6
± gives the expanded uncertainty stated by the source.
readout_name: surface tension liquid-gas

> print(dat)
                                   molecule                readout.name       assay.result
1  CCC(=O)OCc1ccccc1 [benzyl propanoate] + CCO  surface tension liquid-gas    30.5 ± 0.4 mN/m
2  CCOC(=O)CC(C)=O [ethyl 3-oxobutanoate] + CCO  surface tension liquid-gas  29.46 ± 0.41 mN/m
3  CCOC(=O)c1ccccc1O [ethyl 2-hydroxybenzoate] + CCO  surface tension liquid-gas   30.33 ± 0.4 mN/m

====

- experimental_details: xn = mol fraction of the nth substance listed
- conditions: 288.15 K, Wilhelmy plate method, x1 = 0.15
Each entry below carries its recorded surface tension liquid-gas.
readout_name: surface tension liquid-gas (mN/m)

> print(dat)
                                   molecule  unit.text  assay.result
1   COC(=O)c1ccccc1 [methyl benzoate] + CCO       mN/m          25.4
2  CCC(=O)OCc1ccccc1 [benzyl propanoate] + CCO       mN/m          25.5
3  CCOC(=O)c1ccccc1O [ethyl 2-hydroxybenzoate] + CCO       mN/m          25.5

====

Each entry below carries its recorded surface tension liquid-gas.
- experimental_details: xn = mol fraction of the nth substance listed
- conditions: 288.15 K, Wilhelmy plate method, x1 = 0.45
± gives the expanded uncertainty stated by the source.
readout_name: surface tension liquid-gas

> print(dat)
                                   compound                readout.name      assay.result
1  CC(=O)OCc1ccccc1 [benzyl ethanoate] + CCO  surface tension liquid-gas   29.4 ± 0.4 mN/m
2  CCOC(=O)CC(C)C [ethyl 3-methylbutanoate] + CCO  surface tension liquid-gas  23.82 ± 0.4 mN/m
3  CCOC(=O)c1ccccc1O [ethyl 2-hydroxybenzoate] + CCO  surface tension liquid-gas   28.6 ± 0.4 mN/m

====

- experimental_details: refractive index (Na D-line) (dimensionless); xn = mol fraction of the nth substance listed
- conditions: 318.15 K; 100.5 kPa; Liquid; Standard Abbe refractometry; x1 = 0.55
Each entry below carries its recorded refractive index.
readout_name: refractive index

> print(dat)
                                   molecule  assay.result
1  CC(=O)OCc1ccccc1 [benzyl ethanoate] + CCO       1.45653
2  CCOC(=O)CC(C)=O [ethyl 3-oxobutanoate] + CCO        1.3928
3  CCC(=O)OCc1ccccc1 [benzyl propanoate] + CCO       1.45569

====

- experimental_details: refractive index (Na D-line) (dimensionless); xn = mol fraction of the nth substance listed
- conditions: 318.15 K; 100.5 kPa; Liquid; Standard Abbe refractometry; x1 = 0.5
readout_name: refractive index

> print(dat)
                                   molecule      readout.name  assay.result
1  CCOC(=O)CC(C)=O [ethyl 3-oxobutanoate] + CCO  refractive index        1.3905
2   COC(=O)c1ccccc1 [methyl benzoate] + CCO  refractive index       1.45746
3  CCOC(=O)c1ccccc1O [ethyl 2-hydroxybenzoate] + CCO  refractive index       1.46685
